Test system: SK-OV-3 ovarian
assay-procedure: NCI-60 one-dose screen, 48 h (100 = growth as untreated, 0 = no growth, -100 = all killed)
experimental-conditions: 10 µM unless noted
The panel holds about 83,000 compounds, 20% with a hit somewhere; the sample as a whole holds those more often.
experimental-readout: growth (%)
Use % as the unit, but write only the number.

Lookup: Write down the reported growth of COc1cc2cc(Oc3ccc(NC(=O)Nc4cccc(C(F)(F)F)c4)cc3)c(C)nc2cc1OCCN(C)C , test system: SK-OV-3 ovarian.
Found: 107

Lookup: Write down the reported growth of COc1ccc(Oc2ccc(C3CC(c4cc(OC)c(OC)c(OC)c4)=NN3C(C)=O)cc2)cc1 (centres undefined) , test system: SK-OV-3 ovarian.
Found: 50.9

Lookup: Write down the reported growth of O=C(/C=C1\C=CN(CCCCF)c2ccccc21)n1ccc2ccccc21 , test system: SK-OV-3 ovarian.
Found: 95.9

Lookup: Write down the reported growth of N#Cc1c(-c2cccs2)cc(-c2cnccn2)nc1SCC(=O)NNC(=S)Nc1ccc(F)cc1 , test system: SK-OV-3 ovarian.
Found: 121

Lookup: Write down the reported growth of CC(C)(C)n1nnnc1C(Nc1nccs1)c1cc2cccc3ccc4cccc1c4c32 (centres undefined) , test system: SK-OV-3 ovarian.
Found: 109

Lookup: Write down the reported growth of C/C=C/C=C1\C[C@H]2CO[C@H](O2)C1=O , test system: SK-OV-3 ovarian.
Found: 103

Lookup: Write down the reported growth of COc1cc(NC2=C(Cl)C(=O)c3nc(C)ccc3C2=O)cc(OC)c1 , test system: SK-OV-3 ovarian.
Found: 93.8

Lookup: Write down the reported growth of C#C[C@]1(O)CC[C@H]2[C@@H]3CC=C4c5sc(-c6ccccn6)nc5CC[C@]4(C)[C@H]3CC[C@@]21C , test system: SK-OV-3 ovarian.
Found: 76.8

Lookup: Write down the reported growth of Cn1cc(-c2nn3cc(-c4cccnc4)nc3s2)c2ccccc21 , test system: SK-OV-3 ovarian.
Found: 50.7

This collection of values is drawn from PubChem BioAssay (NCI).
